meta.source: patent US20200048267A1

Consider the following molecules; for each one, report its IC50.
ASSAY_TARGET: recombinant human Meningioma Expressed Antigen 5 (MGEA5), also referred to as O-GlcNAcase (OGA) (Homo sapiens, UniProt O60502)
Construct: Full length OGA enzyme was purchased at OriGene (cat # TP322411); purchased OriGene TP322411
EXPERIMENT_NOTES: OGA biochemical assay (inhibition of FM-GlcNAc hydrolysis, fluorescence)
MEASUREMENT_CONTEXT: read-out: ENZYMATIC hOGA; pIC50 (converted)
Numbers only, in nM.

// below: answered molecules
MOLECULE	QUANTITATIVE_READOUT
Cc1cc(N2CCC3(CCN(Cc4ccc5sc(C)nc5c4)C3)C2)nc(C)n1 (centres unmarked) [Product 32]	51.3
COc1nc(C)ccc1N1CCC2(CCN(Cc3cnc(NC(C)=O)s3)C2)C1 (centres unmarked) [Product 53]	309
COc1cc(N2CCC3(CCN(Cc4cnc(NC(C)=O)s4)C3)C2)cc(C)n1 (centres unmarked) [Product 58]	5.89
Cc1cc(N2CCC3(CCN(C(C)c4ccc5sc(C)nc5c4)C3)C2)cc(C)n1 (centres unmarked) [Product 29]	18.2
CC(=O)Nc1ncc(CN2CCC3(CCN(c4cnccn4)C3)C2)s1 (centres unmarked) [Product 11]	81.3
CC(=O)Nc1ncc(CN2CCC3(CCN(c4ncc(F)cc4F)C3)C2)s1 (centres unmarked) [Product 46]	112

Please go through the list and note IC50 for each molecule.
1. Cc1cc(N2CCC3(CCN(C(C)c4ccc5c(c4)OCCO5)C3)C2)cc(C)n1 (centres unmarked) [Product 38]
2. Cc1cc(N2CCC3(CCN(C(C)c4ccc5nccnc5c4)C3)C2)nc(C)n1.Cl (centres unmarked) [Product 20]
3. CC(=O)Nc1ncc(CN2CCC3(CCN(c4ccc(C)nc4)C3)C2)s1 (centres unmarked) [Product 44]
4. CC(=O)Nc1ncc(CN2CCC3(CCN(c4cc(C(F)(F)F)cc(C)n4)C3)C2)s1 (centres unmarked) [Product 62]
5. CC(=O)Nc1cnc(N2CCC3(CCN(C(C)c4ccc5c(c4)OCO5)C3)C2)nc1 (centres unmarked) [Product 16]

1: 30.2; 2: 117; 3: 33.9; 4: 42.7; 5: 2690

Batch lookup, IC50 per entry.
1. CC(=O)Nc1ncc(CN2CCC3(CCN(c4cc(C)nc(C(F)(F)F)c4)C3)C2)s1 (centres unmarked) [Product 28]
2. Cc1cc(N2CCC3(CCN(Cc4ccc5nccnc5c4)C3)C2)cc(C)n1 (single isomer, unassigned) [Product 5]
3. CC(c1ccc2nccnc2c1)N1CCC2(CCN(c3cncc(C4CC4)n3)C2)C1 (centres unmarked) [Product 15]
4. CC(=O)Nc1ncc(CN2CCC3(CCN(c4c(C)cncc4C)C3)C2)s1 (centres unmarked) [Product 60]

[19.1, 219, 229, 52.5]

State the recorded IC50 for every item in the following list.
1. Cc1cc(N2CCC3(CCN(C(C)c4cnc5c(c4)OCCO5)C3)C2)cc(C)n1 (centres unmarked) [Product 37]
2. CCOc1cc(N2CCC3(CCN(Cc4cnc(NC(C)=O)s4)C3)C2)cc(C)n1 (centres unmarked) [Product 59]

1: 182; 2: 3.63

----------
ASSAY_TARGET: recombinant human Meningioma Expressed Antigen 5 (MGEA5), also referred to as O-GlcNAcase (OGA) (Homo sapiens, UniProt O60502)
Construct: Full length OGA enzyme was purchased at OriGene (cat # TP322411); purchased OriGene TP322411
EXPERIMENT_NOTES: OGA biochemical assay (inhibition of FM-GlcNAc hydrolysis, fluorescence)
MEASUREMENT_CONTEXT: read-out: ENZYMATIC Emax (%)
EXPERIMENTAL_READOUT: Emax (%)
Numbers only, in %.

COMPOUND	Emax / %
CCOc1cc(N2CCC3(CCN(Cc4cnc(NC(C)=O)s4)C3)C2)cc(C)n1 (centres unmarked)	100
CC(=O)Nc1ncc(CN2CCC3(CCN(c4cc(C)nc(C)c4)C3)C2)s1 (centres unmarked) [Product 1]	102
CC(=O)Nc1ncc(CN2CCC3(CCN(c4cc(F)ncc4C)C3)C2)s1 (centres unmarked)	100
CC(=O)Nc1ncc(CN2CCC3(CCN(c4ccc(C)nc4)C3)C2)s1 (centres unmarked)	102

Here is another compound to look at.
Per the records, this compound ( COc1cncc(N2CCC3(CCN(Cc4cnc(NC(C)=O)s4)C3)C2)c1 (centres unmarked) ) has Emax equal to 99.4

----------
ASSAY_TARGET: OGA (Homo sapiens, UniProt O60502)
Construct: HEK293 cells inducible for P301L mutant human Tau (isoform 2N4R) were established at Janssen; endogenous in cells; host or cells: HEK293 cells inducible for P301L mutant human Tau (2N4R)
EXPERIMENT_NOTES: OGA cellular assay (ICC detection of O-GlcNAcylated proteins in HEK293 cells inducible for P301L mutant human Tau)
Format: cell-based
MEASUREMENT_CONTEXT: 6 hours incubation
MET means recorded Emax is 60% or above; NOT MET means it is below 60%.

MOLECULE	CLASS_LABEL
Cc1cc(N2CCC3(CCN(C(C)c4cnc5c(c4)OCCO5)C3)C2)cc(C)n1 (centres unmarked)	NOT MET
CC(=O)Nc1ncc(CN2CCC3(CCN(c4cc(C(F)(F)F)cc(C)n4)C3)C2)s1 (centres unmarked)	NOT MET
CC(=O)Nc1ncc(CN2CCC3(CCN(c4ccc(C)nc4C#N)C3)C2)s1 (centres unmarked)	NOT MET

Record Cc1cc(N2CCC3(CCN(C(C)c4ccc5sc(C)nc5c4)C3)C2)nc(C)n1 (centres unmarked) ; criterion: Emax no lower than 60%. Met?
NOT MET

# bool: Emax of CCc1cc(N2CCC3(CCN(Cc4cnc(NC(C)=O)s4)C3)C2)cc(C)n1 (centres unmarked) >= 60%
MET

----------
ASSAY_TARGET: OGA (Homo sapiens, UniProt O60502)
Construct: HEK293 cells inducible for P301L mutant human Tau (isoform 2N4R) were established at Janssen; endogenous in cells; host or cells: HEK293 cells inducible for P301L mutant human Tau (2N4R)
Sequence (O60502 1-916): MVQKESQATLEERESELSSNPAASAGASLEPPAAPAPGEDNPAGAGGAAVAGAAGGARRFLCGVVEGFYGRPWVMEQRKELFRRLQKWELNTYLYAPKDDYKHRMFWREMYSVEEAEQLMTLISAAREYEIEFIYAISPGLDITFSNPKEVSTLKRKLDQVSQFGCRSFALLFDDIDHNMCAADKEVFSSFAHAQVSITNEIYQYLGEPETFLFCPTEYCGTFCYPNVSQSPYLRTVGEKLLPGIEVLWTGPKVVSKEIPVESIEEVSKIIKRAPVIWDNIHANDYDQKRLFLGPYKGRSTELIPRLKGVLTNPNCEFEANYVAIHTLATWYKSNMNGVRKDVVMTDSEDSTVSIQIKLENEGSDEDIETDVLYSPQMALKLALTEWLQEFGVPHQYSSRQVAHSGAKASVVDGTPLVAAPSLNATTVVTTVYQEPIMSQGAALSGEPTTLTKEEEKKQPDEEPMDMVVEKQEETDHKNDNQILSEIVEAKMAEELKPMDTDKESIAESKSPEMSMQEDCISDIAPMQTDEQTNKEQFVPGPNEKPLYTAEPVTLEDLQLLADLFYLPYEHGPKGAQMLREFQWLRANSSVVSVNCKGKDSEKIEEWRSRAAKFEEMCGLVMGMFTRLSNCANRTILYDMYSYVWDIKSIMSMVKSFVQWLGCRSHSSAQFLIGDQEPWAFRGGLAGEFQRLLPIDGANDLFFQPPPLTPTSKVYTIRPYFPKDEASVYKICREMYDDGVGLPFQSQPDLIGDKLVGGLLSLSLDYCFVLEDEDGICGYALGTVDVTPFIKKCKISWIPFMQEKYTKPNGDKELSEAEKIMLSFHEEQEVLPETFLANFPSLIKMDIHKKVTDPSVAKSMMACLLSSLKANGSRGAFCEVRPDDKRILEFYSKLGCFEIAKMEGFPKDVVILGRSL
EXPERIMENT_NOTES: OGA cellular assay (ICC detection of O-GlcNAcylated proteins in HEK293 cells inducible for P301L mutant human Tau)
Format: cell-based
MEASUREMENT_CONTEXT: 6 hours incubation, read-out: CELLULAR hOGA, pEC50 (converted)
Kindly apply the following: fulfilled if EC50 is less than 0.1 µM, not fulfilled in every other case.

Here are 4 compounds together with their reported answers.
COMPOUND	CLASS_LABEL
CC(=O)Nc1ncc(CN2CCC3(CCN(c4cc(C)ncc4C(F)(F)F)C3)C2)s1 (centres unmarked)	not fulfilled
Cc1cc(N2CCC3(CCN(Cc4ccc5nccnc5c4)C3)C2)cc(C)n1 (single isomer, unassigned)	not fulfilled
CC(=O)Nc1ncc(CN2CCC3(CCN(c4cc(C)ncc4C)C3)C2)s1 (centres unmarked)	fulfilled
CC(=O)Nc1ncc(CN2CCC3(CCN(c4cc(C(F)(F)F)cc(C)n4)C3)C2)s1 (centres unmarked)	not fulfilled

# TODO verify EC50 < 0.1 µM strictly for this compound: CC(=O)Nc1ncc(CN2CCC3(CCN(c4cncc(C(F)(F)F)c4)C3)C2)s1 (centres unmarked)
not fulfilled

Would you kindly verify if EC50 of COc1cc(N2CCC3(CCN(Cc4cnc(NC(C)=O)s4)C3)C2)cc(C)n1 (centres unmarked) is strictly less than 0.1 µM?
fulfilled

Field: below-cutoff. Rule: recorded EC50 strictly less than 0.1 µM. Subject: CC(=O)Nc1ncc(CN2CCC3(CCN(c4ccc(C)nc4C#N)C3)C2)s1 (centres unmarked)
not fulfilled

Would you kindly verify if EC50 of Cc1cc(N2CCC3(CCN(C(C)c4cnc5c(c4)OCCO5)C3)C2)cc(C)n1 (centres unmarked) is strictly less than 0.1 µM?
not fulfilled

Problem: For the compound Cc1cc(N2CCC3(CCN(Cc4nc5ccccc5[nH]4)C3)C2)nc(C)n1 (centres unmarked) , is EC50 under 0.1 µM?
not fulfilled

Bench note: check whether CC(=O)Nc1cnc(N2CCC3(CCN(C(C)c4ccc5c(c4)OCO5)C3)C2)nc1 (centres unmarked) shows EC50 below 0.1 µM
not fulfilled

Here's an entry: COc1cc(C)cc(N2CCC3(CCN(Cc4cnc(NC(C)=O)s4)C3)C2)n1 (centres unmarked) . Is its EC50 below 0.1 µM?
not fulfilled

Here's an entry: Cc1cc(N2CCC3(CCN(Cc4ccc5sc(C)nc5c4)C3)C2)cc(C(F)(F)F)n1 (centres unmarked) . Is its EC50 below 0.1 µM?
not fulfilled

Regarding CCOc1cc(N2CCC3(CCN(Cc4cnc(NC(C)=O)s4)C3)C2)cc(C)n1 (centres unmarked) , kindly confirm whether its EC50 is beneath 0.1 µM.
fulfilled

Identify whether the compound CC(=O)Nc1ncc(CN2CCC3(CCN(c4cc(C)nc(C)n4)C3)C2)s1 (centres unmarked) records EC50 below 0.1 µM.
not fulfilled

Quick check: does CC(=O)Nc1ncc(CN2CCC3(CCN(c4cc(C)c(C)cn4)C3)C2)s1 (centres unmarked) have EC50 under 0.1 µM?
not fulfilled

For this compound, is EC50 lower than 0.1 µM? Cc1cc(N2CCC3(CCN(C(C)c4ccc5scnc5c4)C3)C2)cc(C)n1 (centres unmarked)
not fulfilled

For COc1cncc(N2CCC3(CCN(Cc4cnc(NC(C)=O)s4)C3)C2)c1 (centres unmarked) , is the recorded EC50 below the cut-off of 0.1 µM?
not fulfilled
